Tested on: Escherichia coli TOP10;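 further: peptides expressed intracellularly from a pBAD plasmid library in pooled LB shake-flask culture, induced with 0.3% L-arabinose, DNA abundance read by NGS, three biological replicates, DESeq2 with apeglm shrinkage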
test_summary: shrunken log2 fold change of peptide-encoding DNA abundance (4.5 h post-induction vs induction); higher = less antimicrobial activity (less host growth inhibition)
condition_context: time post-induction: 4.5 h; library: site-saturation at positions 5, 18, 19, 20
Class key for shrunken log2 fold change values: lower bin: < -0.1; middle bin: ≥ -0.1 and < 0.1; upper bin: ≥ 0.1

INSERT INTO measurements (biopolymer_sequence, assigned_class) VALUES
  ('RRIRGRPPRLPRPRPRPHFEPRP', 'upper bin'),
  ('RRIRMRPPRLPRPRPRPEYIPRP', 'middle bin'),
  ('RRIRMRPPRLPRPRPRPNGLPRP', 'middle bin'),
  ('RRIRARPPRLPRPRPRPWSCPRP', 'middle bin'),
  ('RRIRTRPPRLPRPRPRPHYIPRP', 'lower bin'),
  ('RRIRCRPPRLPRPRPRPWCCPRP', 'lower bin'),
  ('RRIRGRPPRLPRPRPRPDNRPRP', 'middle bin'),
  ('RRIRNRPPRLPRPRPRPHISPRP', 'middle bin'),
  ('RRIRARPPRLPRPRPRPFKLPRP', 'lower bin'),
  ('RRIRMRPPRLPRPRPRPDRKPRP', 'middle bin'),
  ('RRIRSRPPRLPRPRPRPYCTPRP', 'lower bin'),
  ('RRIRERPPRLPRPRPRPGYGPRP', 'lower bin'),
  ('RRIRKRPPRLPRPRPRPPNPPRP', 'upper bin'),
  ('RRIRMRPPRLPRPRPRPDILPRP', 'upper bin'),
  ('RRIRKRPPRLPRPRPRPLHHPRP', 'upper bin'),
  ('RRIRSRPPRLPRPRPRPCQAPRP', 'upper bin'),
  ('RRIRGRPPRLPRPRPRPKFGPRP', 'upper bin'),
  ('RRIRGRPPRLPRPRPRPGMKPRP', 'upper bin'),
  ('RRIRYRPPRLPRPRPRPEQGPRP', 'middle bin'),
  ('RRIRVRPPRLPRPRPRPEWNPRP', 'lower bin'),
  ('RRIRGRPPRLPRPRPRPAKAPRP', 'upper bin'),
  ('RRIRGRPPRLPRPRPRPKMIPRP', 'upper bin'),
  ('RRIRDRPPRLPRPRPRPIYCPRP', 'middle bin'),
  ('RRIRCRPPRLPRPRPRPWPLPRP', 'upper bin'),
  ('RRIRCRPPRLPRPRPRPGYWPRP', 'upper bin'),
  ('RRIRTRPPRLPRPRPRPHHLPRP', 'middle bin'),
  ('RRIRQRPPRLPRPRPRPMDEPRP', 'middle bin'),
  ('RRIRDRPPRLPRPRPRPTRMPRP', 'upper bin'),
  ('RRIRPRPPRLPRPRPRPSPPPRP', 'middle bin'),
  ('RRIRERPPRLPRPRPRPITPPRP', 'lower bin'),
  ('RRIRKRPPRLPRPRPRPWFEPRP', 'middle bin'),
  ('RRIRRRPPRLPRPRPRPCWLPRP', 'upper bin'),
  ('RRIRARPPRLPRPRPRPRQAPRP', 'upper bin'),
  ('RRIRNRPPRLPRPRPRPQYLPRP', 'lower bin'),
  ('RRIRKRPPRLPRPRPRPQQQPRP', 'middle bin'),
  ('RRIRFRPPRLPRPRPRPIGFPRP', 'lower bin'),
  ('RRIRPRPPRLPRPRPRPTCYPRP', 'lower bin'),
  ('RRIRFRPPRLPRPRPRPKFIPRP', 'lower bin'),
  ('RRIRSRPPRLPRPRPRPQEDPRP', 'lower bin'),
  ('RRIRLRPPRLPRPRPRPGMYPRP', 'lower bin'),
  ('RRIRMRPPRLPRPRPRPADSPRP', 'upper bin'),
  ('RRIRDRPPRLPRPRPRPLRDPRP', 'upper bin'),
  ('RRIRPRPPRLPRPRPRPVFFPRP', 'upper bin'),
  ('RRIRPRPPRLPRPRPRPEGCPRP', 'upper bin'),
  ('RRIRFRPPRLPRPRPRPYVPPRP', 'lower bin'),
  ('RRIRIRPPRLPRPRPRPNGGPRP', 'lower bin'),
  ('RRIRARPPRLPRPRPRPCDCPRP', 'lower bin'),
  ('RRIRHRPPRLPRPRPRPAEFPRP', 'upper bin'),
  ('RRIRVRPPRLPRPRPRPWNCPRP', 'middle bin'),
  ('RRIRDRPPRLPRPRPRPLAHPRP', 'upper bin'),
  ('RRIRGRPPRLPRPRPRPQDQPRP', 'upper bin'),
  ('RRIRPRPPRLPRPRPRPEYKPRP', 'lower bin'),
  ('RRIRPRPPRLPRPRPRPFSIPRP', 'lower bin'),
  ('RRIRDRPPRLPRPRPRPHRAPRP', 'middle bin'),
  ('RRIRFRPPRLPRPRPRPKNVPRP', 'middle bin'),
  ('RRIRNRPPRLPRPRPRPPSEPRP', 'lower bin'),
  ('RRIRKRPPRLPRPRPRPVDEPRP', 'upper bin'),
  ('RRIRERPPRLPRPRPRPGPIPRP', 'middle bin'),
  ('RRIRDRPPRLPRPRPRPQMQPRP', 'upper bin'),
  ('RRIRIRPPRLPRPRPRPHDNPRP', 'lower bin'),
  ('RRIRFRPPRLPRPRPRPMWPPRP', 'middle bin'),
  ('RRIRVRPPRLPRPRPRPSCVPRP', 'lower bin'),
  ('RRIRMRPPRLPRPRPRPHWAPRP', 'middle bin');
